Assay: Cytotoxicity against human 184B5 cells assessed as reduction in cell viability measured after 72 hrs by MTT assay
Assay type: toxicity, cell-based
Settings: 184b5, 72 h
Please provide measured log10(TGI) for the entries that follow.
Note: values are log10 of TGI expressed in µM.

// below: answered molecules
                         smi  resultnumber
0                 C[Se](=O)O          0.58
1    N#CSCc1ccc(-n2cccc2)cc1          1.37
2  O=C1c2ccccc2C(=O)N1C[SeH]          1.24
3  N#CSCc1c2ccccc2nc2ccccc12          1.42
4        Cc1noc(C)c1C[Se]C#N          0.60

Q: Report log10(TGI), nothing else, for this molecule: `Cc1noc(C)c1CSC#N`
Ans: 1.87

---

Assay: Cytotoxicity against human PC3 cells assessed as reduction in cell viability measured after 72 hrs by MTT assay
Format: functional
Settings: PC-3, 72 h
readoutLabel: GI50

// below: answered molecules
>>> df
                           smi  readoutlabel    result
0          SCc1cc2c(cc1Br)OCO2          GI50   87.5 µM
1   N#C[Se]Cc1ccc(-n2cccc2)cc1          GI50   59.9 µM
2         [SeH]c1ccnc([SeH])n1          GI50    9.8 µM
3    O=C1c2ccccc2C(=O)N1C[SeH]          GI50    6.4 µM
4              CSc1nc2ccccc2s1          GI50   39.6 µM
5  N#C[Se]CN1C(=O)c2ccccc2C1=O          GI50   11.2 µM
6     N#CSCN1C(=O)c2ccccc2C1=O          GI50  > 100 µM
7               Sc1nc2ccccc2s1          GI50   84.9 µM
8           C[Se]c1nc2ccccc2s1          GI50  > 100 µM
9   [SeH]Cc1c2ccccc2nc2ccccc12          GI50   83.2 µM

I have 7 molecules here; please give me GI50 for each one.
1. Cc1noc(C)c1CSC#N
2. C[Se](=O)O
3. N#CSc1nccc(Cl)n1
4. [SeH]c1nc2ccccc2s1
5. N#CSCc1ccc(-n2cccc2)cc1
6. C[Se]c1ccc2ccccc2n1
7. CSc1ccc2ccccc2n1

Ans:
1. 8 µM
2. 2.5 µM
3. > 100 µM
4. > 50 µM
5. 14.1 µM
6. 83.6 µM
7. 87 µM

---

Assay: Cytotoxicity against human PC3 cells assessed as reduction in cell viability measured after 72 hrs by MTT assay
Type: functional
Conditions: PC-3, 72 h
readoutLabel: TGI (µM)
Numbers only, in µM.

// below: answered compounds
>>> df
                       smi  readoutlabel  resultnumber
0        N#CSc1nc2ccccc2s1           TGI          66.3
1  N#CSCc1ccc(-n2cccc2)cc1           TGI          60.3
2      Cc1noc(C)c1C[Se]C#N           TGI          10.3
3         Cc1noc(C)c1CSC#N           TGI          13.8
4     [SeH]c1ccnc([SeH])n1           TGI          28.3

API: the following record is the query input.
Q: Report TGI, nothing else, for this compound: `O=C1c2ccccc2C(=O)N1C[SeH]`
Ans: 9.4
